System: corn
Assay: Test A pre-/postemergence greenhouse test
Assay type: in vivo, Zea mays
Details: Postemergence, 500 g ai/ha; 0 to 100 scale, 0 is no effect, 100 is complete control
We label by threshold. Values of Corn plant response rating strictly beneath 20 are 1.0. Values of 20 and up are 0.0.

Does the reported Corn plant response rating of Cc1cc[n+]([O-])c(S(=O)(=O)C(Cl)c2c(C(F)(F)F)nn(C)c2Cl)c1 (racemic) stay below 20? 0.0

Does the reported Corn plant response rating of Cn1nc(C(F)(F)F)c(C[S+]([O-])c2cccc[n+]2[O-])c1OC(F)F (stereo not drawn) stay below 20? 0.0

Does the reported Corn plant response rating of Cc1cc[n+]([O-])c([S+]([O-])Cc2c(C(F)(F)C(F)(F)F)nn(C)c2OCC(F)(F)F)c1 (stereo not drawn) stay below 20? 0.0

Does the reported Corn plant response rating of Cn1nc(C(F)(F)F)c(CS(=O)(=O)c2ccc(Cl)c[n+]2[O-])c1OCC(F)(F)F stay below 20? 1.0

Does the reported Corn plant response rating of Cn1nc(C(F)(F)F)c(C[S+]([O-])c2cccc[n+]2[O-])c1OCC(F)F (stereo not drawn) stay below 20? 0.0

Does the reported Corn plant response rating of [O-][n+]1ccccc1[S+]([O-])C(Cl)c1c(C(F)(F)F)nn(CC(F)(F)F)c1Cl (stereo not drawn) stay below 20? 1.0

Does the reported Corn plant response rating of Cc1cc[n+]([O-])c(S(=O)(=O)C(Cl)c2c(C(F)(F)F)nn(C)c2OCC(F)(F)F)c1 (racemic) stay below 20? 0.0

Does the reported Corn plant response rating of Cn1nc(C(F)(F)F)c(C[S+]([O-])c2cc(Cl)cc[n+]2[O-])c1OC(F)F (stereo not drawn) stay below 20? 0.0

Does the reported Corn plant response rating of Cn1nc(C(F)(F)F)c(C[S+]([O-])c2cc(C(C)(C)C)cc[n+]2[O-])c1OC(F)F (racemic) stay below 20? 0.0

Does the reported Corn plant response rating of CC(c1c(C(F)(F)F)nn(CC(F)(F)F)c1Cl)S(=O)(=O)c1ccc(Cl)c[n+]1[O-] (stereo not drawn) stay below 20? 1.0

Does the reported Corn plant response rating of Cn1nc(C(F)(F)F)c(C(Cl)S(=O)(=O)c2cccc[n+]2[O-])c1OCC(F)(F)F (racemic) stay below 20? 1.0

Does the reported Corn plant response rating of Cn1nc(C(F)(F)F)c(C[S+]([O-])c2cc(C3CC3)cc[n+]2[O-])c1OCC(F)(F)F (stereo not drawn) stay below 20? 0.0

Does the reported Corn plant response rating of Cn1nc(C(F)(F)C(F)(F)F)c(C[S+]([O-])c2cccc[n+]2[O-])c1OCC(F)(F)F (stereo not drawn) stay below 20? 0.0

====

Test system: morningglory
Assay: Test C pre-/postemergence test
Assay type: in vivo, Ipomoea coccinea
Settings: 62 g ai/ha, preemergence; scale 0 (no effect) to 100 (complete control)
observed_property: Morningglory plant response rating
Lab note: jot down the number only; don't add units.

So what does the record say about Morningglory plant response rating for Cn1nc(C(F)(F)F)c(CS(=O)(=O)c2cccc[n+]2[O-])c1OC(F)F ? 0

So what does the record say about Morningglory plant response rating for Cc1cc[n+]([O-])c([S+]([O-])Cc2c(C(F)(F)F)nn(C)c2OC(F)F)c1 (stereo not drawn) ? 100

So what does the record say about Morningglory plant response rating for CC(c1c(C(F)(F)F)nn(C)c1OC(F)F)S(=O)(=O)c1cccc[n+]1[O-] (stereo not drawn) ? 100

So what does the record say about Morningglory plant response rating for Cn1nc(C(F)(F)F)c(C[S+]([O-])c2ccc(Br)c[n+]2[O-])c1OC(F)F (racemic) ? 10

So what does the record say about Morningglory plant response rating for Cn1nc(C(F)(F)F)c(C[S+]([O-])c2cccc[n+]2[O-])c1OC(F)F (stereo not drawn) ? 90

So what does the record say about Morningglory plant response rating for Cn1nc(C(F)(F)F)c(CS(=O)(=O)c2ccc(Cl)c[n+]2[O-])c1OC(F)F ? 0

====

Tested on: velvetleaf
Experiment: Test A pre-/postemergence greenhouse test
Type: in vivo, Abutilon theophrasti
Conditions: Postemergence, 125 g ai/ha; 0 to 100 scale where 0 is no effect and 100 is complete control
observed_property: Plant response rating, Velvetleaf
Lab note: jot down the number only; don't add units.

So what does the record say about Plant response rating, Velvetleaf for CC(C)c1cc[n+]([O-])c([S+]([O-])Cc2c(C(F)(F)F)nn(C)c2OCC(F)(F)F)c1 (stereo not shown) ? 50

So what does the record say about Plant response rating, Velvetleaf for CC(C)c1cc[n+]([O-])c([S+]([O-])Cc2c(C(F)(F)F)nn(C)c2OC(F)F)c1 (stereo not shown) ? 60

So what does the record say about Plant response rating, Velvetleaf for Cn1nc(C(F)(F)F)c(C[S+]([O-])c2cc(Cl)cc[n+]2[O-])c1OCC(F)(F)F (stereo not shown) ? 50

So what does the record say about Plant response rating, Velvetleaf for Cn1nc(C(F)(F)F)c(C(Cl)S(=O)(=O)c2cccc[n+]2[O-])c1OC(F)F (stereo not shown) ? 60

So what does the record say about Plant response rating, Velvetleaf for Cn1nc(C(F)(F)F)c(C[S+]([O-])c2ccc(Cl)c[n+]2[O-])c1OCC(F)(F)C(F)(F)F (stereo not shown) ? 30

So what does the record say about Plant response rating, Velvetleaf for Cn1nc(C(F)(F)F)c(C[S+]([O-])c2ccc(F)c[n+]2[O-])c1OC(F)F (stereo not shown) ? 60

So what does the record say about Plant response rating, Velvetleaf for Cn1nc(C(F)(F)F)c(C[S+]([O-])c2c(F)ccc[n+]2[O-])c1Cl (stereo not shown) ? 50

So what does the record say about Plant response rating, Velvetleaf for CC(C)c1cc[n+]([O-])c(S(=O)(=O)Cc2c(C(F)(F)F)nn(C)c2OCC(F)(F)F)c1 ? 50

So what does the record say about Plant response rating, Velvetleaf for Cc1cc[n+]([O-])c([S+]([O-])Cc2c(C(F)(F)F)nn(CC(F)(F)F)c2Cl)c1 (stereo not shown) ? 0

So what does the record say about Plant response rating, Velvetleaf for CC(Oc1c(CS(=O)(=O)c2ccc(Cl)c[n+]2[O-])c(C(F)(F)F)nn1C)C(F)(F)F (stereo not shown) ? 40

====

System: wheat
Test: Test A pre-/postemergence greenhouse test
Type: in vivo, Triticum aestivum
Details: Postemergence, 500 g ai/ha; 0 to 100 scale, 0 is no effect, 100 is complete control
For each record, write down the corresponding Wheat plant response rating.
Lab note: jot down the number only; don't add units.

So what does the record say about Wheat plant response rating for CCc1cc[n+]([O-])c([S+]([O-])Cc2c(C(F)(F)F)nn(C)c2OCC(F)(F)F)c1 (stereo not shown) [Compound 59] ? 70

So what does the record say about Wheat plant response rating for Cn1nc(C(F)(F)F)c(CS(=O)(=O)c2ccc(F)c[n+]2[O-])c1OC(F)F [Compound 107] ? 0

So what does the record say about Wheat plant response rating for Cn1nc(C(F)(F)F)c(CS(=O)(=O)c2cc(Br)cc[n+]2[O-])c1Cl [Compound 32] ? 0

So what does the record say about Wheat plant response rating for Cc1cc[n+]([O-])c(S(=O)(=O)Cc2c(C(F)(F)F)nn(C)c2OC(F)F)c1 [Compound 2] ? 70

So what does the record say about Wheat plant response rating for CCn1nc(C(F)(F)F)c(C[S+]([O-])c2cc(C)cc[n+]2[O-])c1OCC(F)(F)F (racemic) [Compound 66] ? 70

So what does the record say about Wheat plant response rating for Cc1cc[n+]([O-])c([S+]([O-])Cc2c(C(F)(F)F)nn(CC(F)(F)F)c2Cl)c1 (stereo not shown) [Compound 48] ? 50

So what does the record say about Wheat plant response rating for CC(c1c(C(F)(F)F)nn(C)c1OC(F)F)S(=O)(=O)c1cc(C(C)(C)C)cc[n+]1[O-] (racemic) [Compound 26] ? 40

====

Tested on: green foxtail
Assay: Test C pre-/postemergence test
Assay type: in vivo, Setaria viridis
Conditions: 125 g ai/ha, preemergence; scale 0 (no effect) to 100 (complete control)
For each record, write down the corresponding Foxtail, Green plant response rating.
Lab note: jot down the number only; don't add units.

Return Foxtail, Green plant response rating measured with green foxtail given this compound: CC(Oc1c(C[S+]([O-])c2cccc[n+]2[O-])c(C(F)(F)F)nn1C)C(F)(F)F (stereo not shown) [Compound 77] 100

Return Foxtail, Green plant response rating measured with green foxtail given this compound: CCc1cc[n+]([O-])c(S(=O)(=O)Cc2c(C(F)(F)F)nn(C)c2OCC(F)(F)F)c1 [Compound 60] 100

Return Foxtail, Green plant response rating measured with green foxtail given this compound: Cn1nc(C(F)(F)F)c(C[S+]([O-])c2cccc[n+]2[O-])c1OCC(F)F (stereo not shown) [Compound 75] 98

Return Foxtail, Green plant response rating measured with green foxtail given this compound: Cn1nc(C(F)(F)C(F)(F)F)c(C[S+]([O-])c2ccc(Cl)c[n+]2[O-])c1OCC(F)(F)F (stereo not shown) [Compound 92] 98

Return Foxtail, Green plant response rating measured with green foxtail given this compound: Cn1nc(C(F)(F)F)c(C[S+]([O-])c2ccc(F)c[n+]2[O-])c1OCC(F)(F)F (stereo not shown) [Compound 67] 100

Return Foxtail, Green plant response rating measured with green foxtail given this compound: Cn1nc(C(F)(F)F)c(CS(=O)(=O)c2cccc[n+]2[O-])c1OCC(F)F [Compound 81] 100

Return Foxtail, Green plant response rating measured with green foxtail given this compound: CCc1cc[n+]([O-])c([S+]([O-])Cc2c(C(F)(F)F)nn(C)c2OC(F)F)c1 (stereo not shown) [Compound 101] 98

Return Foxtail, Green plant response rating measured with green foxtail given this compound: Cn1nc(C(F)(F)F)c(CS(=O)(=O)c2ccc(Cl)c[n+]2[O-])c1OCC(F)(F)F [Compound 73] 100

Return Foxtail, Green plant response rating measured with green foxtail given this compound: Cn1nc(C(F)(F)F)c(C(Cl)S(=O)(=O)c2cccc[n+]2[O-])c1OC(F)F (stereo not shown) [Compound 51] 85

Return Foxtail, Green plant response rating measured with green foxtail given this compound: CCc1cc[n+]([O-])c(S(=O)(=O)Cc2c(C(F)(F)F)nn(C)c2OC(F)F)c1 [Compound 102] 98

Return Foxtail, Green plant response rating measured with green foxtail given this compound: Cn1nc(C(F)(F)F)c(C[S+]([O-])c2cc(Br)cc[n+]2[O-])c1Cl (racemic) [Compound 35] 100

Return Foxtail, Green plant response rating measured with green foxtail given this compound: Cn1nc(C(F)(F)F)c(C[S+]([O-])c2cc(F)cc[n+]2[O-])c1Cl (racemic) [Compound 42] 100

Return Foxtail, Green plant response rating measured with green foxtail given this compound: Cn1nc(OC(F)F)c(CS(=O)(=O)c2cccc[n+]2[O-])c1C(F)(F)F [Compound 80] 100

Data provenance: patent US20100298141A1
